Biological target: T1, human factor XIIa (activated blood coagulation factor XII) (human, UniProt P00748 20-615, limits assumed, biotinylated (site not stated))
T1 construct: The construct used for SPR, for the Ki assay and for the cocrystal is not described; The same entry is used for all three; also called FXIIa; FXIIA
T1 sequence (looked up): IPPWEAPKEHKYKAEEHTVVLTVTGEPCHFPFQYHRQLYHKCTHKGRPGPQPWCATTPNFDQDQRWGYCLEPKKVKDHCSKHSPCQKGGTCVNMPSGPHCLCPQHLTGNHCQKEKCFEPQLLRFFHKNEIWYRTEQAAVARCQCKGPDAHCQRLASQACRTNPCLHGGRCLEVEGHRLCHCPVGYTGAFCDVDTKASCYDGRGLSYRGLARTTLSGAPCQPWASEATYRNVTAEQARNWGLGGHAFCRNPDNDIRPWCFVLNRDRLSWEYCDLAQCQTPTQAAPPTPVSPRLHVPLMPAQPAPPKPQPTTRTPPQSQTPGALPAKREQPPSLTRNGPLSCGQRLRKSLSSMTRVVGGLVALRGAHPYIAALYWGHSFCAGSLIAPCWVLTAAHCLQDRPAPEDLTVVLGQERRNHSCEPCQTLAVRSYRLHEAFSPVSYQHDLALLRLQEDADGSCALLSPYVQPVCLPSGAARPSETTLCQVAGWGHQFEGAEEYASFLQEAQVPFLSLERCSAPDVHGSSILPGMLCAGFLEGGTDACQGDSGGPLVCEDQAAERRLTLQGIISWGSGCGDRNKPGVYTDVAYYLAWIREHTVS
Test: SPR, Biacore T200, 25 C, single cycle kinetics, 1:1 model; peptide F2A (drawing CHEM-US-00044, read number 0), control variant of F2
Positions of bridges follow the written chain, without caps; N, C: chain ends. Non-standard residues stand in square brackets, D forms with d. No end group written: not given here.
measured.quantity: Kd
Enter the number, and then the unit.

Given {CH2CO}-[dY]PRLFNASYLRR[dC] (thioether N-13, also called negative control peptide of F2) [F2A] , respond with its Kd.
92.2 nM
